# Experimental Details: Pharmacokinetic experiment in rats
# Assay type: in vivo, SD rats
# Test Conditions: male, SD, rat, in vivo, po, 20 mg/kg
# Protocol: A certain amount of compound was weighted and dissolved in 0.1% Tween under vortex and ultrasound, and 0.5% carboxymethyl cellulose sodium (CMC-NA) solution was added to form a uniform solution.
Property Measured: bioavailability

{"Mol": "CCN(c1cc(-c2ccc3c(c2)C=CC32CCN(C(C)C)CC2)cc(C(=O)NCc2c(OC)cc(C)[nH]c2=O)c1C)C1CCOCC1", "bioavailability": "34.1%"}

Challenge: Need bioavailability of CCN(c1cc(-c2ccc3c(c2)NC(=O)C32CCNCC2)cc(C(=O)NCc2c(OC)cc(C)[nH]c2=O)c1C)C1CCNCC1 , thanks.
Response given: 34.3%

Challenge: Fill blank: measured bioavailability of the molecule CCN(c1cc(-c2ccc3c(c2)NC(=O)C32CCN(C3COC3)CC2)cc(C(=O)NCc2c(C)cc(C)[nH]c2=O)c1C)C1CCOCC1 is ____.
Response given: 25.4%

Challenge: Give the measured bioavailability of CCN1CCC2(CC1)CN(C)c1cc(-c3cc(C(=O)NCc4c(C)cc(C)[nH]c4=O)c(C)c(N(CC)C4CCOCC4)c3)ccc12 .
Response given: 28.6%

This collection of values is drawn from patent US12473298B2.
